Where do these numbers come from? They come from patent US10106542B2.

Structures can show the parent of a compound that is named as a salt.
property_label: melting point (°C)

Solved cases (10 shown):
| compound | property_label | experimental_result |
| --- | --- | --- |
| C[C@H]1CN(c2ccc(C(F)(F)F)cc2)C(=O)c2c(-c3ccnc(C(F)F)c3)cnn21 [compound 131] | melting point | 134.7 |
| Cc1cc(-c2cnn3c2C(=O)N(c2ccc(C(F)(F)F)c(F)c2)CC3)ccn1 [compound 39] | melting point | 185.2 |
| COCc1cc(N2C[C@H](C)n3ncc(-c4ccnc(C)c4)c3C2=O)ccc1C(F)(F)F [compound 158] | melting point | 48.2 |
| CNc1cc(-c2cnn3c2C(=O)N(c2ccc(C(F)(F)F)c(OC)c2)C[C@@H]3C)ccn1 [compound 183] | melting point | 125.6 |
| CCOc1cc(-c2cnn3c2C(=O)N(c2ccc(Cl)c(Cl)c2)C[C@@H]3C)ccn1 (as salt: HCl) [compound 133] | melting point | 191.5 |
| CNc1cc(-c2cnn3c2C(=O)N(c2ccc(C(F)(F)F)c(F)c2)C[C@@H]3C)ccn1 [compound 182] | melting point | 67.8 |
| COc1nc(N2C[C@H](C)n3ncc(-c4ccnc(C)c4)c3C2=O)ccc1C(F)(F)F [compound 207] | melting point | 147.6 |
| Cc1cc(N2C[C@H](C)n3ncc(-c4ccncc4)c3C2=O)ccc1C(F)(F)F [compound 153] | melting point | 162 |
| C[C@H]1CN(c2ccc(C(F)(F)F)c(C#N)c2)C(=O)c2c(-c3ccncc3)cnn21 [compound 155] | melting point | 101.8 |
| C[C@H]1CN(c2ccc(C(F)(F)F)cc2)C(=O)c2c(-c3ccnc(N4CCCC4)c3)cnn21 [compound 105] | melting point | 124 |

(A) C[C@H]1CN(c2ccc(C(F)(F)F)cc2)C(=O)c2c(-c3ccnc(N4CCNCC4)c3)cnn21.Cl [compound 175]
(B) CCOc1nc(N2C[C@H](C)n3ncc(-c4ccncc4)c3C2=O)ccc1C(F)(F)F [compound 208]
(C) COc1cc(-c2cnn3c2C(=O)N(c2ccc(C(F)(F)F)cc2)C[C@@H]3C)cc(C)n1 [compound 145]
Task: Arrange items by their melting point values in increasing order. Give me the labels in the order the question wants.
Output: C, B, A
(C: 57.5 °C, B: 141.3 °C, A: 220.8 °C)
